method_summary: Antiproliferative activity against human HL60(TB) cells after 48 hrs
Assay type: functional, HL-60(TB)
condition_details: HL-60, 48 h, read-out: Log TGI (converted)
measured_endpoint: TGI
Answer format reminder: number followed by unit.

# annotated cases, reported TGI shown
>>> assay_result("C[C@@H](NC(=O)CCCCCCCCCCCCCCC[n+]1ccccc1)[C@@H](O)c1ccccc1.[Br-]")
"3.72 µM"
>>> assay_result("CCCCCCCCCCCCCCN[C@H](CO)[C@H](O)c1ccc([N+](=O)[O-])cc1.Cl")
"4.79 µM"
>>> assay_result("CCCCCCCCCCCCCCN[C@@H](C)[C@H](O)c1ccccc1")
"3.98 µM"
>>> assay_result("CCCCCCCCCCCCCCN[C@H](CO)[C@H](O)c1ccccc1")
"3.72 µM"
>>> assay_result("CCCCCCCCCCCCCCN[C@H](C)[C@@H](O)c1ccccc1.Cl")
"2.51 µM"
>>> assay_result("C[C@H](NC(=O)CCCCCCCCCCCCCCC[n+]1ccccc1)[C@H](O)c1ccccc1.[Br-]")
"4.37 µM"

Moving on to another compound below.
For the compound CCCCCCCCCCCCCCN[C@@H](CO)Cc1ccccc1 , what TGI is on record?
4.07 µM

Source listed as ChEMBL document CHEMBL1143122.
